protein stability index values by entry
B1: TMEM106C (parent)
chain: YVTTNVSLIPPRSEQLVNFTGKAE

- Variants of: B1
- TEST: protein stability index of a GFP-peptide fusion (GPS, HEK-293T) (PSI 1-6); higher = more stable;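 further: lentivirally expressed fusions sorted by FACS into six bins by GFP to DsRed ratio, PSI derived from sequencing read proportions per bin multiplied by bin number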
- ASSAY_CONDITIONS: c terminus: a fixed tail appended
Output spec: single numeric token, no unit.

Use the examples below as a reference point.
VARIANT_DESCRIPTOR: N18T
protein stability index: 1.62

VARIANT_DESCRIPTOR: S7T
protein stability index: 2.64

VARIANT_DESCRIPTOR: P11H
protein stability index: 1.97

VARIANT_DESCRIPTOR: P10Y
protein stability index: 2.88

VARIANT_DESCRIPTOR: L8I
protein stability index: 2.04

VARIANT_DESCRIPTOR: T3L
protein stability index: 2.15

Short answer for "E24V" : protein stability index was 1.41

Short answer for "E24T" : protein stability index was 2.75

Short answer for "N18A" : protein stability index was 2.02

Short answer for "T20E" : protein stability index was 2.09

Short answer for "T3A" : protein stability index was 2.75

Short answer for "E24C" : protein stability index was 2.32

Short answer for "P10L" : protein stability index was 1.86

Short answer for "P11R" : protein stability index was 1.41

Short answer for "F19R" : protein stability index was 1.68

Short answer for "Y1H" : protein stability index was 3.88

Short answer for "P10M" : protein stability index was 2.82

Short answer for "I9L" : protein stability index was 1.7

Short answer for "T4Q" : protein stability index was 2.54

Short answer for "R12N" : protein stability index was 1.83

Short answer for "A23V" : protein stability index was 2.3

Short answer for "V2S" : protein stability index was 3.79
